src = the supplement of paper PMC11908140

8OG:A repair function score: recorded values
B1: library; numbered along this chain (parent)
chain: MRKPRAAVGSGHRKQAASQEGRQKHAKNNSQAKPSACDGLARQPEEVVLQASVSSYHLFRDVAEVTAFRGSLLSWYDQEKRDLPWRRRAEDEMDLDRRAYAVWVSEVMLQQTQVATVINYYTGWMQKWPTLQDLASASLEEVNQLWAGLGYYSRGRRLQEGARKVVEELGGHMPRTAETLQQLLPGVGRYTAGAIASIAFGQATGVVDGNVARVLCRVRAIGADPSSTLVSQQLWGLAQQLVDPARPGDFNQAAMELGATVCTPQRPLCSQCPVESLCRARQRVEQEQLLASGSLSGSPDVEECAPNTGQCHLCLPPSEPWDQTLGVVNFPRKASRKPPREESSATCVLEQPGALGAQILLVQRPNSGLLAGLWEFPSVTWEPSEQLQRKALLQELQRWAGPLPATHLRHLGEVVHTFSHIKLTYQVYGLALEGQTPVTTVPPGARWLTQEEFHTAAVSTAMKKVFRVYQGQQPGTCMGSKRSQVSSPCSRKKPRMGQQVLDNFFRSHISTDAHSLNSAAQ

Variants of: B1
Test: 8OG:A repair function score (normalized; synonymous = 0, nonsense = -1) (normalized log-likelihood score); higher = more repair activity (WT-like);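 also: cells sorted at 72 h after reporter transfection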
Settings: with 8OG:A DNA repair reporter (GFP) in HEK-293 MUTYH KO cells
measurement.label: 8OG:A repair function score

>>> df
    variant_code            measurement_label  recorded_measurement
 0         S384H  8OG:A repair function score               -0.0587
 1         N503K  8OG:A repair function score               -0.0135
 2         W235Q  8OG:A repair function score                -0.314
 3         S419H  8OG:A repair function score                 -0.28
 4         N210F  8OG:A repair function score                    -1
 5         T179L  8OG:A repair function score                0.0629
 6         K463F  8OG:A repair function score                -0.101
 7         S510R  8OG:A repair function score               0.00127
 8          A51R  8OG:A repair function score               0.00957
 9         L145K  8OG:A repair function score                0.0459
10         Q181N  8OG:A repair function score                -0.118
11         K422H  8OG:A repair function score                 -0.22
12         R266F  8OG:A repair function score                -0.104
13         H312C  8OG:A repair function score               -0.0404
14         P320D  8OG:A repair function score                -0.134
15         C314N  8OG:A repair function score                -0.553
16         A305R  8OG:A repair function score               -0.0332
17         A177M  8OG:A repair function score               -0.0819
18         Q521S  8OG:A repair function score              -0.00358
19         D322T  8OG:A repair function score               -0.0961
20         L432D  8OG:A repair function score                 -0.57
21         C269H  8OG:A repair function score                 -0.96
22         Y100L  8OG:A repair function score                 -1.29
23         G434R  8OG:A repair function score               -0.0648
